# Tested on: BT-549 breast
# assay_explanation: NCI tumour cell line growth inhibition, 48 h
I'd appreciate it if you could supply log10 TGI values for the items below.
Scale: decimal log of TGI, TGI in µM.

Returns the measured log10 TGI for the input compound. Input: `CC[CH2][Sn]([Cl])([Cl])[CH2]CC`
1.31

Please report the recorded log10 TGI for `CC1=CCC[C@@H]2[C@@](C)(Cc3cc(O)ccc3O)[C@H](C)CC[C@@]12C` .
1.12

What measured log10 TGI goes with `O=[N+]([O-])c1cccc2nc3ccccc3c(NCCCN3CCOCC3)c12` ?
-0.94

// query log10 TGI value for entry `O=c1cc(-c2ccccc2)oc2ccc(Oc3nnnn3-c3ccccc3)cc12`
1.85

Sample COc1cc(C2CC(c3cc(C)ccc3C)=NN2c2ccc(S(=O)(=O)NC(=O)NCc3ccccc3)cc2)cc(OC)c1OC (stereo not given) — what was its log10 TGI?
1.10

What measured log10 TGI goes with `N#CN1CCC[C@H]1C(=O)N1CCc2c(-c3[nH]nc4ncccc34)cccc21` ?
-1.00

Could you tell me which log10 TGI is on file for `CN(C)CCN=Cc1c2ccccc2c(=O)n2c1oc1ccccc12` ?
1.32
